# MEASUREMENT DESCRIPTION: absolute recovery over mixed-bed multilayer solid-phase extraction; higher = better recovery
# RUN PARAMETERS: wastewater effluent; enrichment method: SPE
QUANTITY KIND: absolute recovery (%)

Worked cases, absolute recovery given:
compound="CCCC[NH+]1CCCCC1C(=O)Nc1c(C)cccc1C (stereo not given)" quantity_kind="absolute recovery" value_observed=90.3
compound="C[NH2+]CCCC(C#N)(c1ccc(OC)c(OC)c1)C(C)C (stereo not given)" quantity_kind="absolute recovery" value_observed=86.9
compound="C[NH+]1CCN2c3ccccc3Cc3ccccc3C2C1 (stereo not given)" quantity_kind="absolute recovery" value_observed=95.7

I. CN1CCN(C)C1=O
II. O=S(=O)([O-])c1ccc2ccc(S(=O)(=O)[O-])cc2c1
q: Please indicate which has the smaller reported absolute recovery: I , or II . # answer = label of selected item
a: I

====

# MEASUREMENT DESCRIPTION: absolute recovery over mixed-bed multilayer solid-phase extraction; higher = better recovery
# RUN PARAMETERS: wastewater effluent; enrichment method: SPE
QUANTITY KIND: absolute recovery (%)

Field: example entries. Status: answers known.
compound="COc1cccc(C2(O)CCCCC2C[NH3+])c1 (stereo not drawn)" quantity_kind="absolute recovery" value_observed=46.3
compound="O=C(NCC(O)CO)c1c(I)c(C(=O)NCC(O)CO)c(I)c(N(CCO)C(=O)CO)c1I (stereo not drawn)" quantity_kind="absolute recovery" value_observed=57.2
compound=CCCCOc1cc(C(=O)NCC[NH+](CC)CC)c2ccccc2n1 quantity_kind="absolute recovery" value_observed=93
compound=COP(=O)(OC)OC=C(Cl)Cl quantity_kind="absolute recovery" value_observed=60

I. CC1(C)CC(O)CC(C)(C)[NH+]1CCO [4-Hydroxy-1-(2-hydroxyethyl)-2-2-6-6-tetramethylpiperidine]
II. COC(=O)NC(C(=O)NC(Cc1ccccc1)C(O)CN(Cc1ccc(-c2ccccn2)cc1)NC(=O)C(NC(=O)OC)C(C)(C)C)C(C)(C)C (stereo not drawn)
q: Higher absolute recovery: I or II ? Kindly give the label for the entry you pick.
a: II
(II: 95.5%, I: 54.6%)

====

# MEASUREMENT DESCRIPTION: absolute recovery over mixed-bed multilayer solid-phase extraction; higher = better recovery
# RUN PARAMETERS: surface water; enrichment method: SPE
QUANTITY KIND: absolute recovery (%)

compound="COCCc1ccc(OCC(O)C[NH2+]C(C)C)cc1 (stereo not given)" quantity_kind="absolute recovery" value_observed=93.1
compound=c1ccc(CN2CC[NH2+]CC2)cc1 quantity_kind="absolute recovery" value_observed=60.9
compound="CCOC(=O)C1=CC(OC(CC)CC)C(NC(C)=O)C([NH3+])C1 (stereo not given)" quantity_kind="absolute recovery" value_observed=77.5

P. CCOc1ccc2ccccc2c1C(=O)NC1C(=O)N2C1SC(C)(C)C2C(=O)[O-] (stereo not given)
Q. CC(C)Nc1nc(N)nc(Cl)n1
q: Please tell me which of the two, P or Q , has the higher reported absolute recovery value. Let me know the label of the one you choose.
a: Q
(Q: 96.9%, P: 27%)

====

# MEASUREMENT DESCRIPTION: absolute recovery over mixed-bed multilayer solid-phase extraction; higher = better recovery
# RUN PARAMETERS: nanopure water; enrichment method: SPE
QUANTITY KIND: absolute recovery (%)

Below are worked cases with known answers.
compound="O=c1[nH+]c[n-]c2c1ncn2C1CCC(CO)O1 (stereo not given) [Didanosin]" value_observed=107
compound="C#CC(C)(C)NC(=O)c1cc(Cl)cc(Cl)c1 [Propyzamide]" value_observed=97.1
compound="CC(=O)C1CCC2C3CCC4=CC(=O)CCC4(C)C3CCC12C (stereo not given) [Progesteron]" value_observed=92.4
compound="CCCOc1nc2ccc(I)cc2c(=O)n1CCC [Proquinazid]" value_observed=76.1
compound="CCOC(=O)C1=NOC(c2ccccc2)(c2ccccc2)C1 [Isoxadifen-ethyl]" value_observed=82.7
compound="NC(=O)Nc1ccc(Cl)c(Cl)c1 [Diuron-desdimethyl (=1-(3-4-Dichlorophenyl)urea)]" value_observed=98.3
compound="CC#Cc1cc(C)nc(Nc2ccccc2)n1 [Mepanipyrim]" value_observed=93.5
compound="COC(=O)NC(C(=O)NC(Cc1ccccc1)C(O)CN(Cc1ccc(-c2ccccn2)cc1)NC(=O)C(NC(=O)OC)C(C)(C)C)C(C)(C)C (stereo not given) [Atazanavir]" value_observed=87.6

I. CN(C)S(=O)(=O)Nc1ccccc1 [DMSA (=N-N-Dimethylaminosulfanilid)]
II. [NH3+]C(Cc1cc(I)c(O)c(I)c1)C(=O)[O-] [3-5-Diiodo-L-tyrosine]
q: Given the listed records, identify the one among I and II with higher absolute recovery. Your answer should be the label of the entry you select.
a: I
(I: 100%, II: 69.5%)

====

# MEASUREMENT DESCRIPTION: absolute recovery over vacuum-assisted evaporative concentration; higher = better recovery
# RUN PARAMETERS: wastewater influent; enrichment method: VEC
QUANTITY KIND: absolute recovery (%)

Solved cases (3 shown):
molecule=Cc1cc([N-]S(=O)(=O)c2ccc(N)cc2)no1 units_text=% value_observed=113
molecule=Cc1[nH]c(=O)n(C(C)(C)C)c(=O)c1Cl units_text=% value_observed=105
molecule="C[NH2+]CC(c1ccc(OC)cc1)C1(O)CCCCC1 (stereo not given)" units_text=% value_observed=101

I. C#CC[NH+](C)Cc1ccccc1
II. C[NH+](C)CCC=C1c2ccccc2CCc2ccccc21
q: Quick one: lower absolute recovery, I or II ? Write down the label attached to your selection.
a: I
(I: 72.1%, II: 108%)

====

# MEASUREMENT DESCRIPTION: LC retention time (Atlantis T3, 5-95% MeOH gradient, 0.1% formic acid); higher = more retained / less polar
QUANTITY KIND: LC retention time (min)

molecule="CCCOCC(=Nc1ccc(Cl)cc1C(F)(F)F)n1ccnc1 [Triflumizole]" value_observed=21.3

1. O=C(Nc1ccc(Cl)cc1)Nc1ccc(Cl)c(Cl)c1 [Triclocarban]
2. Cc1cccc(C)c1NC(=O)C1CCCC[NH+]1C (stereo not given) [Mepivacaine]
q: Endpoint returns the identifier whose LC retention time is numerically larger, either 1 or 2 . I would appreciate it if you answered with the label of your choice.
a: 1

====

# MEASUREMENT DESCRIPTION: absolute recovery over mixed-bed multilayer solid-phase extraction; higher = better recovery
# RUN PARAMETERS: wastewater influent; enrichment method: SPE
QUANTITY KIND: absolute recovery (%)

compound="CCS(=O)(=O)c1nc2ccccn2c1S(=O)(=O)[N-]C(=O)Nc1nc(OC)cc(OC)n1 [Sulfosulfuron]" quantity_kind="absolute recovery" units_text=% value_observed=102
compound="CC12C=CC(=O)C=C1CCC1C2C(=O)CC2(C)C1CCC2(O)C(=O)CO (stereo unspecified) [Prednisone]" quantity_kind="absolute recovery" units_text=% value_observed=87.1
compound="CC12CC3CC(C)(C1)CC([NH3+])(C3)C2 [Memantine]" quantity_kind="absolute recovery" units_text=% value_observed=78
compound="Cc1cccc(C)c1N(Cn1cccn1)C(=O)CCl [Metazachlor]" quantity_kind="absolute recovery" units_text=% value_observed=94.5

A. CC(=O)SC1CC2=CC(=O)CCC2(C)C2CCC3(C)C(CCC34CCC(=O)O4)C12 (stereo unspecified) [Spironolacton]
B. C[NH+](C)CCC=C1c2ccccc2CCc2ccccc21 [Amitriptyline E]
q: Between the entries labeled A and B , whose measured absolute recovery is lower? Give the label under which the chosen entry appears.
a: B
(B: 58.1%, A: 92%)

====

# MEASUREMENT DESCRIPTION: absolute recovery over vacuum-assisted evaporative concentration; higher = better recovery
# RUN PARAMETERS: wastewater influent; enrichment method: VEC
QUANTITY KIND: absolute recovery (%)

Sample records with absolute recovery:
compound="CC[NH+]1CCCC1CNC(=O)c1cc(S(=O)(=O)CC)c(N)cc1OC (centres undefined)" quantity_kind="absolute recovery" units_text=% value_observed=102
compound="C[NH+]1C2CCC1CC(OC(=O)C(CO)c1ccccc1)C2 (centres undefined)" quantity_kind="absolute recovery" units_text=% value_observed=99.7
compound=COCCOCCOCCOCCOC quantity_kind="absolute recovery" units_text=% value_observed=112
compound=Cc1ncc2n1-c1ccc(Cl)cc1C(c1ccccc1F)=NC2 quantity_kind="absolute recovery" units_text=% value_observed=106
compound=CC1(C(=O)Nc2ccc(O)c(Cl)c2Cl)CCCCC1 quantity_kind="absolute recovery" units_text=% value_observed=96.3

a. CC(=O)Nc1ccc(S(=O)(=O)[N-]c2cc(C)on2)cc1
b. COc1cccc2c1C(=O)c1c(O)c3c(c(O)c1C2=O)CC(O)(C(=O)CO)CC3OC1CC([NH3+])C(O)C(C)O1 (centres undefined)
q: Of a and b , whose reported absolute recovery is the larger number? In your reply, give the label of the chosen option.
a: a

Values were extracted from the supplement of paper PMC6470124.
